Measured values drawn from paper PMC12154575 for this set.

- measurementTarget: Jagged1 (Homo sapiens, UniProt P78504)
- Construct: full-length extracellular domain (C2 to EGF16, 1277-JG-050, R&D Systems) tagged with an Fc-tag (Jagged1-Fc)
- Sequence (P78504 34-1067 limits assumed): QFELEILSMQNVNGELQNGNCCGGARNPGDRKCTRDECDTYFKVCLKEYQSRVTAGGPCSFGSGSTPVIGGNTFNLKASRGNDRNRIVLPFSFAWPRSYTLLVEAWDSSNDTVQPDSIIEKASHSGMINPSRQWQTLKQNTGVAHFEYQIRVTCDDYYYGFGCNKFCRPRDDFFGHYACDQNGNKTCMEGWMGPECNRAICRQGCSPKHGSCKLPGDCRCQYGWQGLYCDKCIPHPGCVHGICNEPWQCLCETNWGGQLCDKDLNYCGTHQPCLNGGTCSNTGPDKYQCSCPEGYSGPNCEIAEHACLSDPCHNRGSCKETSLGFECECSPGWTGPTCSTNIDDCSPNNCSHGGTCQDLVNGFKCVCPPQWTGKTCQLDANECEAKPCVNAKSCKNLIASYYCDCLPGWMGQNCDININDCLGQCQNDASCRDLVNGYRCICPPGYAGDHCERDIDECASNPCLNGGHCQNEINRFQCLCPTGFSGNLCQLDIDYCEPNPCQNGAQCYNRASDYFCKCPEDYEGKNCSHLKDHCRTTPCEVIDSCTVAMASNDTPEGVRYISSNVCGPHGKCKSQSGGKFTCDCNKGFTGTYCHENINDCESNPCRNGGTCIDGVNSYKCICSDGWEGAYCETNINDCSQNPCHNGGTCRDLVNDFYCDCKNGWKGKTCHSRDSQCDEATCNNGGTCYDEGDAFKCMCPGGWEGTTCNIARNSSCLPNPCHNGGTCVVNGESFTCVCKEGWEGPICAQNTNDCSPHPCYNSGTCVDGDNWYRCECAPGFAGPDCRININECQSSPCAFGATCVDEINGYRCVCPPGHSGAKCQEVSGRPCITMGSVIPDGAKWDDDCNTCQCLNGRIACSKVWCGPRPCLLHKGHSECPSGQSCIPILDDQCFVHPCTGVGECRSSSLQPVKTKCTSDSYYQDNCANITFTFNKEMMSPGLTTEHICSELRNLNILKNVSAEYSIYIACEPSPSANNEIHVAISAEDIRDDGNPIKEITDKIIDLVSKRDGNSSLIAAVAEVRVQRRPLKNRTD
- assayProcedure: label-free microscale thermophoresis (MST)
measurementLabel: Kd (µM)
Field format: number, assumed µM, no unit text.

For this compound ( `[N-]=[N+]=N[C@]1(CO)O[C@@H](n2ccc(N)nc2=O)[C@@H](F)[C@@H]1O` ), measured Kd is 28.4
